Target sequence: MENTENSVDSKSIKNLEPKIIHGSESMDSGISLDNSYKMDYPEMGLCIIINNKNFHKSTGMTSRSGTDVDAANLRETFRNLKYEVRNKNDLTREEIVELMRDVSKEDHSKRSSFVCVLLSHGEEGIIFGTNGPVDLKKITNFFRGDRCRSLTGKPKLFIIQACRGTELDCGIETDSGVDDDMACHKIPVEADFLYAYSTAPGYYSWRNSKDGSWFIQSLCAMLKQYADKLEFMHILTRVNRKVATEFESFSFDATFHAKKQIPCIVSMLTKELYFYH
Compiled notes: published IC50 values involving the protein given by its sequence.
A number alone suffices; assume nM.

INSERT INTO measurements (compound, target_of_assay, parameter, observed_result) VALUES
  ('N#CC(C#N)=C1C(=O)N(Cc2ccc(OCCF)cc2)c2ccc(S(=O)(=O)N3CC[C@H]3COc3cccnc3)cc21', 'the protein given by its sequence', 'IC50', 7.1);

Ask | Bench note: what IC50 did COC(=O)CS(=O)(=O)c1nc2ccc(S(=O)(=O)N3CCOCC3)cc2c2c1C(=O)N(CCOC(C)=O)C2=O show?
Reply | 362

Ask | Now consider COC(=O)CSc1nc2ccc(S(=O)(=O)N3CCOCC3)cc2c2c1C(=O)N(CCOC(C)=O)C2=O and answer again.
Reply | 1290

Ask | Now consider COc1ccc(OC)c(CC(=O)N[C@H](C(=O)N[C@@H](CC(=O)O)C(=O)CSCc2ccccc2)C(C)C)c1 and answer again.
Reply | 48

Ask | Now consider O=C1C(=O)N(Cc2cn(CCF)nn2)c2ccc(S(=O)(=O)N3CCC[C@H]3COc3ccc(F)cc3F)cc21 and answer again.
Reply | 10.8

Ask | Now consider CC(=O)N[C@H](C(=O)O[C@H]1CCC(C)(C)[C@@H]2CC=C3C(=O)OC[C@]3(O)[C@@]12C)C(C)C (relative stereo) and answer again.
Reply | 50000

====

Target sequence: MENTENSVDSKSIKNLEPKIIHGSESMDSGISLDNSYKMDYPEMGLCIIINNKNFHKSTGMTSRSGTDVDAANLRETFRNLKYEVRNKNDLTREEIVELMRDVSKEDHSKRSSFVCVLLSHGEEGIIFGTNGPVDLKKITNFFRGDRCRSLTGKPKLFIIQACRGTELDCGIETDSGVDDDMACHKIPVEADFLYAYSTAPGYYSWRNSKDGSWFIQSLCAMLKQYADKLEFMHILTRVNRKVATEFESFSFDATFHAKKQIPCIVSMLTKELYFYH
Compiled notes: published pIC50 values involving the protein given by its sequence.
Hey, just a heads up that pIC50 is the negative log base 10 of the concentration in molar.

INSERT INTO results (compound, target_of_assay, parameter, observed_result) VALUES
  ('O=C1NC(=O)c2cc(NC(=O)c3ccc([N+](=O)[O-])cc3)ccc2C1=O', 'the protein given by its sequence', 'pIC50', 5.86),
  ('COc1ccc(CN2C(=O)C(=O)c3cc(S(=O)(=O)N4CCC[C@H]4COc4cccnc4)ccc32)cc1', 'the protein given by its sequence', 'pIC50', 8.41);

Ask | Bench note: what pIC50 did O=C(CCCl)Nc1ccc2c(c1)C(=O)C(=O)NC2=O show?
Reply | 7.08

Ask | Now consider Cc1nc2ccccc2c2c1C(=O)N(C)C2=O and answer again.
Reply | 5.20

Ask | Now consider COc1ccc(S(C)(=O)=O)cc1CC(=O)N[C@H](C(=O)N[C@@H](CC(=O)O)C(=O)CSCc1c(F)cccc1Cl)C(C)C and answer again.
Reply | 8.30

Ask | Now consider O=C1C[C@H](NC(=O)[C@@H]2CCc3nc4ccccc4c(=O)n32)C(O)O1 (stereo not given in full) and answer again.
Reply | 5.00

Ask | Now consider O=C1C(=O)N(Cc2ccc(F)cc2)c2ccc(S(=O)(=O)N3CCC[C@H]3COc3cccnc3)cc21 and answer again.
Reply | 8.08

Ask | Now consider CSc1ccc(CN2C(=O)C(=O)c3cc(S(=O)(=O)N4CCC[C@H]4COc4ccccc4)ccc32)cc1 and answer again.
Reply | 7.91

Ask | Now consider CN1C(=O)C(=O)c2cc(S(=O)(=O)N3CCC[C@H]3COc3cccnc3)ccc21 and answer again.
Reply | 7.63

Ask | Now consider COc1cccc(C(=O)NCC2=CC[C@H](NC(=O)c3ccc4ccccc4c3)C(=O)N(CC(=O)N[C@H]3CC(=O)OC3O)C2)c1 (stereo not given in full) and answer again.
Reply | 5.97

Ask | Now consider O=C1Nc2ccc(S(=O)(=O)N3CCC[C@H]3COc3ccncc3)cc2C1=O and answer again.
Reply | 7.69

Ask | Now consider CC(=O)OCCN1C(=O)c2c(Nc3ccc(F)c(Cl)c3)nc3ccc(S(=O)(=O)N4CCOCC4)cc3c2C1=O and answer again.
Reply | 4.55

Ask | Now consider COc1ccc(Br)cc1CC(=O)N[C@H](C(=O)N[C@@H](CC(=O)O)C(=O)CSCc1ccccc1)C(C)C and answer again.
Reply | 7.22

Ask | Now consider O=C1C[C@H](NC(=O)[C@@H]2CCc3nc4cc(-c5ccccc5)nc-4c(O)n32)C(O)O1 (stereo not given in full) and answer again.
Reply | 5.00

Ask | Now consider O=C1Nc2ccc([N+](=O)[O-])cc2C1=O and answer again.
Reply | 6.00

Ask | Now consider O=C1C(=O)N(Cc2ccc(OCCF)cc2)c2ccc(S(=O)(=O)N3CC[C@H]3COc3ccc(F)cc3F)cc21 and answer again.
Reply | 7.92
